# EXPERIMENTAL_SYSTEM: MAP1LC3A, Q9H492
# ASSAY_REMARKS: median log2 fold change of GCK-ALFA target abundance (FLAG IP / Myc IP barcode read proportion) (log2 ratio); each designed protein is fused to an ALFA-tag nanobody in HEK293 cells to bring the named protein to FLAG-tagged glucokinase (GCK); Myc marks an untargeted standard; higher = target protein stabilised (more abundant)
# CONDITION_LABEL: target protein: 3xFLAG-MCP-GCK-ALFA reporter; HEK293 landing pad (RPLP)
In all, about 2,300 sequences were measured (“median log2 fold change of GCK-ALFA target abundance (FLAG IP / Myc IP barcode read proportion)”: median about 0.095, lowest 2% from about -0.47 on). This is one part of a sample in which the lowest values are shown more often than they occur.
Mark N for median log2 fold change values under -0.03, and Y for everything at or above.

Worked set:
## Task Quick check, median log2 fold change >= -0.03? LC3A_3_1711 (protein) GEELIEEAEKILKEKGLSEETKKAVLEALKALLEKGYINAAKELIKLLKEAKDLSDEVILDFAKDVLEYVKTEDVSEEETIKKIKEEYEIAKNEEEIEEL
## Result Y

## Task Quick check, median log2 fold change >= -0.03? LC3A_28_691 (protein) SAIDETIARIRAQAEAALAAGEEALLEVTVPATATQEDIDRLIATIREAVERLAGVGKVYIVVDVESGVAQENITRLADALDELEAEYPNVTVVIALDED
## Result N

## Task Quick check, median log2 fold change >= -0.03? LC3A_141_361 (protein) ATKKETFTLTAKTEEEAIEVAEKIKEKIREFMEKTGAKEVKVTVTITAYNKKTGEVKTETIVETVTPENLDLFEEGLLIELLSYFEKGADEVKVTVTIES
## Result N

## Task Quick check, median log2 fold change >= -0.03? LC3A_free_39_2193 (protein) SAAETEKAKAELLALAAEAGEEAKKLAEEIIKLIGEDLEKLKKLLEALKKAKEAGVDVLEVLKEALELAKELKKQGKSKEEIFEEVLELIEDAINLIPID
## Result Y

## Task Quick check, median log2 fold change >= -0.03? LC3A_147_510 (protein) YLVEIDVDLLVKNAVEEVKKRFKEIVEKLKKKGYKVELEIKEEKIDENTYYVEVTIKIYAETKEEAEKAANETLSLLDEMLEELKDEILGSLISVDIEET
## Result N

## Task Quick check, median log2 fold change >= -0.03? LC3A_3_1793 (protein) AQARIDALLAELRAAGKSDETLAAVRAAATALADRGYEEALATFIEELRELIDAPDEILLDLAEEVLRLIEEEDLDEEELTERIKELAELARNEAEIIEL
## Result Y

## Task Quick check, median log2 fold change >= -0.03? LC3A_45_1925 (protein) MWEATLDVLVPRELAEKAYATAKELMAELEAEHGPDLRVDWATLDESYAASKDEEDVYLEIRIYHPDEQVALDAADRLEDELNAALGGKASSIISLKKLP
## Result N

## Task Quick check, median log2 fold change >= -0.03? LC3A_147_452 (protein) ATYVITVDVLLRNDPELAERIEEEIKKIGEENGAEVEVEREEIQETPTTTEYFLRVTLKTTDEEKALKALQEVSELLDRTAEEHPESFLGAMISFEKIED
## Result N

Proceed to the following item.
## Task Quick check, median log2 fold change >= -0.03? LC3A_free_46_2358 (protein) YKAEIDIDLLHEDKEVLEKAVEEIEKAAREIAEKYGLKVEIEKEFEKLPDGSYYARIRITLEGEDKEKVEEAVNELINEIDKISKKYDVASIISYEIEEK
## Result Y
